Form field: koff (one value per entry).
molecular target: SARS-CoV-2 Receptor Binding Domain (RBD) protein (SARS-CoV-2, UniProt P0DTC2 319-541); assay: SPR, scFv captured by anti-V5, RBD analyte
Kindly answer with a numeric value in s⁻¹, unit omitted.

Consider COVID19_P06_F03 (scFv, V domains shown) VH: QVQLVQSGAEVKKPGASVKVSCKASGYTFTSYSMHWVRQAPGQGLEWMGAIYPGNSDTTYAQKFQGRVTMTRDTSTSTVYMELSSLRSEDTAVYYCTLDGIPQLLRTLDYWGQGTLVTVSS VL: DIQMTQSPSSLSASVGDRVTITCRASQSISSYLNWYQQKPGKAPKLLIYGVSSLHSGVPSRFSGSGSGTDFTLTISSLQPEDFATYYCLQYVSYPWTFGGGTKVEIKR . Its measured koff is 0.00532

Would you kindly look at the next entry?
Consider COVID19_P06_G10 (scFv, V domains shown) VH: QVQLVQSGAEVKKPGASVKVSCKASGYDFINYYIHWVRQAPGQGLEWMGIIDPSGGSTSYAQKFQGRVTMTRDTSTSTVYMELSSLRSEDTAVYYCTREGIPQLLRTLDYWGQGTLVTVSS VL: DIQMTQSPSSLSASVGDRVTITCRASQDISDSLAWYQQKPGKAPKLLIYAASSLQSGVPSRFSGSGSGTDFTLTISSLQPEDFATYYCQQSYSRLAWTFGGGTKVEIKR . Its measured koff is 0.00068
